system.name: TLR7/NFKb HEK cells (Homo sapiens, UniProt Q9NYK1)
Sequence (Q9NYK1 27-1049): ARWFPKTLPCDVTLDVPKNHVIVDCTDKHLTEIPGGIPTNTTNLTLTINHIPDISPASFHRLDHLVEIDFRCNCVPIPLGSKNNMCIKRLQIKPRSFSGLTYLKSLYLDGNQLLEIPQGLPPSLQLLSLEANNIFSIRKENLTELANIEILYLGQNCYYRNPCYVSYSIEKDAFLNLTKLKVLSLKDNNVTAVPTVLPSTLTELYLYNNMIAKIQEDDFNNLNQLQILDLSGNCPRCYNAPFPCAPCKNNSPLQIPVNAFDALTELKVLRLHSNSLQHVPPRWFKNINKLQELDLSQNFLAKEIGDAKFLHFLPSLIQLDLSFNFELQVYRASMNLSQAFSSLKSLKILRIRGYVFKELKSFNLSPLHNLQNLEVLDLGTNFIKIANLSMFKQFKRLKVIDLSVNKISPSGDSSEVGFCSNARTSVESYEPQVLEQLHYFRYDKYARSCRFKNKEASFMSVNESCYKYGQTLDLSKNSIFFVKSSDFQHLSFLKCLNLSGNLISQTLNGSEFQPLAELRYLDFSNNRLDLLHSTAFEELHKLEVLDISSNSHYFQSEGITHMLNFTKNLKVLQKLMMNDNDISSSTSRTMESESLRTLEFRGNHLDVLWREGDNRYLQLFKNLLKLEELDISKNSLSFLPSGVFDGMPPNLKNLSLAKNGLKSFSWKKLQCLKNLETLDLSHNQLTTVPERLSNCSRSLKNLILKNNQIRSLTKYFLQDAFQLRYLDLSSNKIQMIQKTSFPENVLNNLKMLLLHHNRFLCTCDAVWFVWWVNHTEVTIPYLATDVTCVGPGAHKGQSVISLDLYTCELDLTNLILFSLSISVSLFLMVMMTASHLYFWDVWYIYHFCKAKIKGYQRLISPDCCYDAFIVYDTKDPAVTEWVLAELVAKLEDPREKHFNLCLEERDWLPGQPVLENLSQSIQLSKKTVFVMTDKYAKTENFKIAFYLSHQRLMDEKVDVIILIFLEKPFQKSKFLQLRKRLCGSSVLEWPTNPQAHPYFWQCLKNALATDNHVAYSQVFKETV
assay.remarks: HEK Cell Assay (TLR7/NFKb reporter, Steady-Glo luciferase readout)
test.settings: 30 min compound preincubation, then R*48 agonist for 5 hours, read-out: Potency
pIC50: −log10 of the molar value.
measurement.name: pIC50

Example cases with answers are listed next.
compound="Cc1ncc(N2C[C@@H](C)C[C@@H](NC(=O)CCC(N)=O)C2)c2cccnc12 [Compound 564]" measurement_name=pIC50 result="< 5.00"
compound="C[C@H]1C[C@@H](NC(=O)C2(O)CC2)CN(c2ccc(C(F)(F)F)c3ncccc23)C1 [Compound 241]" measurement_name=pIC50 result="> 6.00"
compound="CC(C)[C@H](O)C(=O)N[C@@H]1C[C@H](C)CN(c2ccc(C(F)F)c3ncccc23)C1 [Compound 204]" measurement_name=pIC50 result="> 6.00"

Could you now consider this next compound?
Return reported pIC50. Input compound: Cc1ncc(N2C[C@@H](C)C[C@@H](NC(=O)[C@H](O)C3CC3)C2)c2cccnc12 [Compound 558]
5.00 to 6.00
